tested on: DU-145; assay: NCI tumour cell line growth inhibition, 48 h
Active and inactive are the calls of the source. Rule as the data show it: active = GI50 up to about 1.1 µM and inactive = higher.
Mark one answer only. Choices: active, inactive

Some solved entries appear below for comparison.
> print(dat)
                                   molecule  class.assignment
1  O=C(CCCN1CCc2[nH]c3cc(F)ccc3c2C1)c1ccc(F)cc1          inactive
2  NC(CCOCCP(=O)(O)CCC1C=CC=CC1)C(=O)O (stereo not given)          inactive
3  C[C@@]12C[C@@H](c3ccccc3O1)N1Cc3ccccc3CSC1=N2          inactive

Outcome? C/C=C/C=C/C1=NN(c2cccc(S(=O)(=O)O)c2)C2(C1)SCC(=O)N2c1nc2ccccc2s1 (stereo not given)
inactive

Also need "CCOc1cc(NC(C)=O)ccc1C(=O)NN1C(=O)/C(=C/c2ccco2)N=C1c1ccccc1" , thanks.
inactive

Then what about the molecule "Cc1ccc(O)c(Cc2nc3ccccc3nc2-c2cccc(Br)c2)c1" ?
inactive

Same thing, different molecule: "Cc1c(F)c(NC(=O)CN(C)C)c2c(=O)cc(-c3ccc(NC(=O)CN(C)C)c(F)c3)oc2c1F"
inactive

Another molecule: "O=c1[nH]c(=O)c2ncn(-c3ccc([N+](=O)[O-])cn3)c2[nH]1"
inactive

How about "COC(=O)[C@@H]1CCCN1CCN1CCC[C@H]1C(=O)OC" ?
inactive

O=C1C2CCCC2N1Cc1ccccc1 (stereo not given) , same question.
inactive

Entry to check: CCOC(=O)CCC(C(=O)OCC)n1nnc2cc(Nc3c(C)[n+]([O-])c4ccc(Cl)cc4[n+]3[O-])ccc21 (stereo not given)
inactive

Same lookup for "CC(=O)O[C@@H](c1nccn1Cc1ccccc1)[C@H]1OC(C)(C)O[C@@H]1[C@H]1COC(C)(C)O1" , please.
inactive

Next up: CCOC(=O)C(Cc1ccc(N(CCCl)CCCl)cc1)NC(=O)C(Cc1ccccc1)NC(C)=O (stereo not given)
active

Queued: O=C1CSC(c2c[nH]c3ccccc23)N1c1cccc(Cl)c1 (stereo not given)
inactive

Ok, now COc1ccc(N2C(=O)CSC2c2cc3cc(Br)ccc3nc2Cl)cc1 (stereo not given)
inactive

---

test system: SK-MEL-2; assay: NCI tumour cell line growth inhibition, 48 h
Activity calls are given as the source filed them. Rule as the data show it: active = GI50 up to about 1.1 µM and inactive = higher.
assay-metric: GI50

> print(dat)
                                   compound  observed.measurement
1  O=C(N/C(=C\c1cccc([N+](=O)[O-])c1)c1nc2ccccc2[nH]1)c1ccccc1    66.7 µM (inactive)
2   O=C(Cc1nc2ccccc2o1)C(=O)Nc1ccc(Cl)cc1Cl   > 100 µM (inactive)
3  CC(C)CCCC(C)[C@H]1CC[C@H]2N/C(=N/Cc3ccccc3)CCC[C@]12C (stereo not given in full)    1.97 µM (inactive)
4  COc1cc2c(cc1OC)C(C#N)(Cc1ccccc1)N(C(=O)c1ccccc1)C=C2 (stereo not given)   > 100 µM (inactive)

We now examine a further compound.
What value of GI50 has been recorded for this entry: "CCOC(=O)c1c(C)n(Cc2ccccc2)c2c1cc(O)c1[nH]c3c(c12)CCCC3"
2.31 µM (inactive)

---

system: RXF 393; assay: NCI tumour cell line growth inhibition, 48 h
Activity calls are given as the source filed them. No stated cut-off is given here; in the data, active = GI50 up to about 1.1 µM and inactive = higher.
assay-metric: GI50

> print(dat)
                                   compound  measurement.target  assay.metric  observed.measurement
1  O=C(O)c1ccccc1/C=C1/Cc2ccc3c(c2C1=O)CCC3             RXF 393          GI50    38.2 µM (inactive)

Dear colleague, could you please provide GI50 for the compounds listed below?
1. Cc1cc(S(=O)(=O)Nc2nc(N)nc(N(C)C)n2)c(S)cc1Cl
2. CC(C)c1cccc(C(C)C)c1N1C(=O)C(=O)C(c2nc3ccccc3o2)C(=O)C1=O
3. CN(c1ccccc1)c1c(-c2ccccc2)c(=O)oc2c1ccc1occc12
4. CN(C)CCNC(=O)c1cc(-c2nccn2C)nc2ccccc12
5. CC1(C2COC(=O)C2)SCCCS1 (stereo not given)
6. O=C(CSc1nc2ccc(I)cc2c(=O)n1Cc1ccccc1)NN1C(=O)c2ccccc2C1=O

1: > 10 µM (inactive); 2: 92.3 µM (inactive); 3: > 92.3 µM (inactive); 4: 45.4 µM (inactive); 5: > 100 µM (inactive); 6: 8.3 µM (inactive)

Hi! Can you tell me GI50 for each of these compounds?
1. O=C(c1ccccc1)[C@@H]1C[C@H](Sc2ccccc2)c2cc(Cl)ccc2N1
2. O=Cc1cc2c(s1)C(=O)c1sccc1C2=O
3. CCS(=O)(=O)CCn1cnc2c1c(=O)n(C)c(=O)n2C

1. 6.64 µM (inactive)
2. 0.337 µM (active)
3. > 100 µM (inactive)
